- Tested on: Anopheles stephensi
- testMethodNotes: Example B7: evaluation of insecticide impregnated polymer surfaces
- Assay type: in vivo
- experimentalParameters: LDPE; AI content 2 wt %; polymer 6 to 8 weeks old; after one hour
measuredMetric: knock-down (%)
Just the number in %, nothing appended.

compound=CO/C=C(/C(=O)OC)c1ccccc1Oc1nc(C(C)(C)C)ns1 resultvalue=87
compound=CO/C=C(/C(=O)OC)c1ccccc1Oc1nnc(C(F)(F)F)s1 resultvalue=100
compound="CC1(C)C(C=C(Cl)Cl)C1C(=O)OCc1cccc(Oc2ccccc2)c1 (stereo not shown) [Permethrin, reference compound]" resultvalue=100

QUERY: // output knock-down; input "CCC(=N\OC)/C(C)=N/OCc1ccccc1/C(=C\OC)C(=O)OC" ; system Anopheles stephensi
RESULT: 70
